measured-target: M3 muscarinic receptor (Homo sapiens, UniProt P20309)
Construct: host or cells: Chinese hamster ovary cells
Sequence (P20309 whole entry): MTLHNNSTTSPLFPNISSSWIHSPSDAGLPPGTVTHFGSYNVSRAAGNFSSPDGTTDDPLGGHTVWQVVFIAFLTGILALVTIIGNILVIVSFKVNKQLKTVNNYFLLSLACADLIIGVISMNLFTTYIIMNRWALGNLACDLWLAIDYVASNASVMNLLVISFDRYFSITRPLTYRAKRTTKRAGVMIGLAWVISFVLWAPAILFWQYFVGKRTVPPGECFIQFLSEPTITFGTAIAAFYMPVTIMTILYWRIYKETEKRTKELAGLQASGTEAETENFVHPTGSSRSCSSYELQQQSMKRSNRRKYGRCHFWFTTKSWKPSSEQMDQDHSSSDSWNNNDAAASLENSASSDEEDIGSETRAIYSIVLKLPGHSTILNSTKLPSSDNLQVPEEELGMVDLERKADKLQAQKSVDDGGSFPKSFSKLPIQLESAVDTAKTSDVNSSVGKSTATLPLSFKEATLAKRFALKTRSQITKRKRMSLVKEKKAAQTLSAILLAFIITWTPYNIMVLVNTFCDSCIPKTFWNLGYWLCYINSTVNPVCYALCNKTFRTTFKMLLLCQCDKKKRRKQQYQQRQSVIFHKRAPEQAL
experimental-details: Competition with [3H]NMS (equilibrium binding, CHO membranes)
conditions: read-out: Binding Equilibrium Constants (expressed as pKI) (converted)
Protocol: All radioligand binding experiments were optimized and carried out as described earlier. Briefly, membranes were incubated in 96-well plates at 30° C. in the incubation medium described. […] Dissociation was initiated by addition of atropine to final concentration of 5 Tested ligands in final concentration of 100 μM were added concurrently with atropine. […] The filters were cooled and counted in Wallac Microbeta scintillation counter. Inhibition constant KI was calculated as: […]
Counter-ions that a name gives are not always drawn.
Please respond with reported log10 Ki for every item in the list.
A difference of one corresponds to tenfold Ki; all values are log10 with Ki in µM.

Here is how some compounds turned out for log10 Ki.
| compound | endpoint-label | assay-value |
| --- | --- | --- |
| CCCCOc1ccc(C(=O)OCC[N+]2(C)CC=CCC2)cc1 (stereo not shown) [Compound 10a] | log10 Ki | 0.80 |
| CCCCOc1ccc(C(=O)OCCN2CC=CCC2)cc1 [Compound 9a, hydrochloride] | log10 Ki | 0.90 |
| CCCCc1ccc(C(=O)OCC[N+]2(C)CCCCC2)cc1 [Compound 13b] | log10 Ki | 0.31 |

List log10 Ki for every entry below, keeping the order given.
1. CCCCCCOc1ccc(C(=O)OCC[N+]2(C)CC=CCC2)cc1 (stereo not shown) [Compound 10c]
2. CCCCc1ccc(C(=O)OCC[N+]2(C)CC=CCC2)cc1 (stereo not shown) [Compound 10b]
3. CCCCc1ccc(C(=O)OCCN2CC=CCC2)cc1 [Compound 9b, hydrochloride]

Marked response:
1. -0.40
2. 0.60
3. 1.20

Exam item: Requested read-out log10 Ki, target or system M3 muscarinic receptor (Homo sapiens, UniProt P20309), entry CCCCc1ccc(C(=O)OCCN2CCCCC2)cc1 [Compound 14b]
Marked response: 0.80
